These entries and their values trace back to patent US12162858B2.

Target: Mer (Homo sapiens)
Construct: purchased Life Technologies
Sequence (Q12866 21-999): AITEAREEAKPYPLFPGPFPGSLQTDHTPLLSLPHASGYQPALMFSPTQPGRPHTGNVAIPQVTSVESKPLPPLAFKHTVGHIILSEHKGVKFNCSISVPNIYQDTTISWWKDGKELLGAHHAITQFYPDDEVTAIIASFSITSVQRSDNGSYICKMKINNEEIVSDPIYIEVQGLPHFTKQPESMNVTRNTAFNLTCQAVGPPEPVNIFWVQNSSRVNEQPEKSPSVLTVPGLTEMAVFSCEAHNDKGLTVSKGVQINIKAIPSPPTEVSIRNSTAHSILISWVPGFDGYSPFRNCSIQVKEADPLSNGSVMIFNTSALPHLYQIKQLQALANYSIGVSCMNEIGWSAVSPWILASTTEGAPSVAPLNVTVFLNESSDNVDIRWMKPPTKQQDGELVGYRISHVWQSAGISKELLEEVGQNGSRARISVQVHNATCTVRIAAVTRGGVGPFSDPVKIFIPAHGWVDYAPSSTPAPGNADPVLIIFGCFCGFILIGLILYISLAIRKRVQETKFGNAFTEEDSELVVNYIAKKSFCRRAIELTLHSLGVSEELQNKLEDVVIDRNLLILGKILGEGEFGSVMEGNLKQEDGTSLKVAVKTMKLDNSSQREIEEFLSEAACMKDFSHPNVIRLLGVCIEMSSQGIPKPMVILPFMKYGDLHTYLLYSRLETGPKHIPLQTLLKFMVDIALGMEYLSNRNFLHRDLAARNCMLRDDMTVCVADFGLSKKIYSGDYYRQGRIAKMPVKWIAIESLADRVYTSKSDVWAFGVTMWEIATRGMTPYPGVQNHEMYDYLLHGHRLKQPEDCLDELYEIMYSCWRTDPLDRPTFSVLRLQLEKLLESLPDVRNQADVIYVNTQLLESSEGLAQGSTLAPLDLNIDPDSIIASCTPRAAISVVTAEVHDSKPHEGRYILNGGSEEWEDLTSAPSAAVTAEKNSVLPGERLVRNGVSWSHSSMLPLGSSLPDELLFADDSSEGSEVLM
Assay: LanthaScreen Eu kinase binding assay for Mer
Settings: read-out: Mer kinase binding activity (Kd)
pKd: −log10 of the molar value.
PROPERTY: pKd

{"columns": ["MOLECULE", "RECORDED_RESULT"],
 "data": [
  ["COc1cc2nccc(Oc3ccc(NC(=O)c4nn(CC(C)C)cc4OCC(F)(F)F)c(F)c3)c2cc1OC [Compound 48]", "> 7.00"],
  ["COc1cc2nccc(Oc3ccc(NC(=O)c4nn(C5CCOC5)cc4OCC(F)(F)F)nn3)c2cc1OC (stereo not shown) [Compound 128]", "> 7.00"],
  ["COc1cc2nccc(Oc3ccc(NC(=O)c4nn(CCN)cc4OCC(F)(F)F)nn3)c2cc1OC [Compound 125]", "≤ 6.30"],
  ["CCCn1cc(N(C)CC2CCOCC2)c(C(=O)Nc2ccc(Oc3ccnc4cc(OC)c(OC)cc34)cn2)n1 [Compound 34]", "6.30 to 7.00"]
]}

====

Reported inhibition at 0.1 µM values are given for each entry in this list.
Target: UniProt P07333
Sequence (P07333 20-972): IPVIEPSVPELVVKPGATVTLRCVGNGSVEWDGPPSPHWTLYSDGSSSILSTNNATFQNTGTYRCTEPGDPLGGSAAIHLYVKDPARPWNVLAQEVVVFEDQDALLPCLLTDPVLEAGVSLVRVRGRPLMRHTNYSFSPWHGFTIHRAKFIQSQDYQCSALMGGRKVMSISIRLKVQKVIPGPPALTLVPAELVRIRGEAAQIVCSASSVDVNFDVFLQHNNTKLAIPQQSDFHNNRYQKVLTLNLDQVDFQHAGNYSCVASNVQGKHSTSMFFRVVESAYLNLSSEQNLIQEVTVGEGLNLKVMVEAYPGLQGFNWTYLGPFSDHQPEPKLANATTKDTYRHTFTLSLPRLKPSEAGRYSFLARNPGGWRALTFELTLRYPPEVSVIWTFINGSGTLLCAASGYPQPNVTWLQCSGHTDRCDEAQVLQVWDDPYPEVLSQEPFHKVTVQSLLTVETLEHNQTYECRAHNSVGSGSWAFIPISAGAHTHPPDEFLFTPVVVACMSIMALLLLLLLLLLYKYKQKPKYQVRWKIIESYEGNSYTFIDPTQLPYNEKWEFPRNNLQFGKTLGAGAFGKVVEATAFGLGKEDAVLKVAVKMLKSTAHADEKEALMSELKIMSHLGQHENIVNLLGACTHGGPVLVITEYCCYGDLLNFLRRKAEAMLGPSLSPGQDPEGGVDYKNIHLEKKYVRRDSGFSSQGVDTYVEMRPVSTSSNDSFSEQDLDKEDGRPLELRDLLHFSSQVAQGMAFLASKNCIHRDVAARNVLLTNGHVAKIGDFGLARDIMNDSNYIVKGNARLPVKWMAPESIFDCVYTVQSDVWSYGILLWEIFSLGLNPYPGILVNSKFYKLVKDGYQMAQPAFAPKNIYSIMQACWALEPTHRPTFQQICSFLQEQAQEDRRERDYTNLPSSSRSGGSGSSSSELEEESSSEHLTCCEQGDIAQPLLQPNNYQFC
Assay: KINOMEscan competition binding assay for CSF1R
Design: DNA tag for qPCR (not a peptide); host or cells: E. coli/T7 phage or HEK-293
Settings: @ 0.1 uM; read-out: CSF1R kinase binding activity, Range
Procedure: KINOMEscan™ is based on a competition binding assay that quantitatively measures the ability of a compound to compete with an immobilized, active-site directed ligand. […] The ability of the test compound to compete with the immobilized ligand is measured via quantitative PCR of the DNA tag. E. coli were grown to log-phase and infected with T7 phage and incubated with shaking at 32° C. until lysis. […] Kds were determined using an 11-point 3-fold compound dilution series with three DMSO control points. […]
PROPERTY: inhibition at 0.1 µM

{"columns": ["COMPOUND", "PROPERTY", "RECORDED_RESULT"],
 "data": [
  ["CCCn1cc(OCC(F)(F)F)c(C(=O)Nc2ccc(Oc3ccnc4cc(OC)c(OC)cc34)cc2F)n1", "inhibition at 0.1 µM", "≥ 80%"],
  ["COc1cc2nccc(Oc3ccc(NC(=O)c4nn(C)cc4OCC(F)(F)F)nc3)c2cc1OC", "inhibition at 0.1 µM", "≥ 80%"],
  ["COc1cc2nccc(Oc3ccc(NC(=O)c4nn(CCCO)cc4OCC(F)(F)F)nc3)c2cc1OC", "inhibition at 0.1 µM", "≥ 80%"],
  ["COc1cc2nccc(Oc3ccc(NC(=O)c4nn(CCO)cc4OCC(F)(F)F)cn3)c2cc1OC", "inhibition at 0.1 µM", "< 50%"],
  ["CNCCOc1cn(C2CC2)nc1C(=O)Nc1ccc(Oc2ccnc3cc(OC)c(OC)cc23)nn1", "inhibition at 0.1 µM", "< 50%"],
  ["COc1cc2nccc(Oc3ccc(NC(=O)c4nn(CC(C)O)cc4OCC(F)(F)F)cc3F)c2cc1OC (stereo not drawn)", "inhibition at 0.1 µM", "50 to 80%"],
  ["COc1cc2nccc(Oc3ccc(NC(=O)c4nn(C5CCNC5)cc4OCC(F)(F)F)cc3)c2cc1OC (stereo not drawn)", "inhibition at 0.1 µM", "< 50%"],
  ["CNCCn1cc(OCC(F)(F)F)c(C(=O)Nc2ccc(Oc3ccnc4cc(OC)c(OC)cc34)cc2)n1", "inhibition at 0.1 µM", "< 50%"],
  ["COc1cc2nccc(Oc3ccc(NC(=O)c4nn(CC(C)C)cc4OCC(F)(F)F)cn3)c2cc1OC", "inhibition at 0.1 µM", "< 50%"],
  ["COc1cc2nccc(Oc3ccc(NC(=O)c4nn(C5CC5)cc4OCC4COC4)nc3)c2cc1OC", "inhibition at 0.1 µM", "≥ 80%"],
  ["CCCn1cc(OCC(F)(F)F)c(C(=O)Nc2ccc(Oc3ccnc4cc(OC)c(OC)cc34)c(C(F)(F)F)c2)n1", "inhibition at 0.1 µM", "< 50%"],
  ["COc1cc2nccc(Oc3ccc(NC(=O)c4nn(C5CC5)cc4OCC4CNC4)nn3)c2cc1OC", "inhibition at 0.1 µM", "< 50%"],
  ["COc1cc2nccc(Oc3ccc(NC(=O)c4nn(CCOC5CC5)cc4OCC(F)(F)F)nc3)c2cc1OC", "inhibition at 0.1 µM", "≥ 80%"],
  ["COc1cc2nccc(Oc3ccc(NC(=O)c4nn(C5CCN(C)C5)cc4OCC(F)(F)F)cc3C)c2cc1OC (stereo not drawn)", "inhibition at 0.1 µM", "50 to 80%"],
  ["COc1cc2nccc(Oc3ccc(NC(=O)c4nn(C[C@H](C)O)cc4OCC(F)(F)F)nc3)c2cc1OC", "inhibition at 0.1 µM", "≥ 80%"]
]}
